system: NCI-H226; experiment: NCI tumour cell line growth inhibition, 48 h
Calls of active or inactive are those of the source. Cut-off read from the data, not from the text of the source: active = GI50 up to about 1.1 µM and inactive = higher.
Result category, one only: label 1 for active, label 0 for inactive

Input: // param item: CCN(CC)CCC(=O)c1ccc(Oc2ccc(F)cc2)cc1 ; yields the recorded call
Output: label 0

Input: What do you get for CCOC(=O)/C(=C\NC(=S)Nc1ccc(OCC)cc1)C(=O)c1ccccc1 ?
Output: label 0

Input: What do you get for CC(=O)OC(C)(C)[C@@H]1CC[C@]2(C)/C=C/[C@H](C)C[C@@H](O)C3=C(C)C[C@@H](O3)C12 (some centres not stated) ?
Output: label 0

Input: What do you get for O=C1NC(=S)N/C1=C\c1cc2c(=O)c3ccccc3sc2s1 ?
Output: label 0

Input: What do you get for NC(=S)N/N=C\c1nccc2ccccc12 ?
Output: label 1

Input: What do you get for CC1=C(/C=C/C(C)=C/C=C/C(C)=C/C=C/C=C(C)/C=C/C=C(C)/C=C/C=C(C)/C=C/C=C(\C)C(=O)O)C(C)(C)CCC1 ?
Output: label 0

Input: What do you get for CC(=O)Nc1cc2ccc(=O)oc2cc1Cl ?
Output: label 0

Input: What do you get for CC(=O)OC1(C)C(=O)OC1(C)C(C)=O (configuration not stated) ?
Output: label 0

Input: What do you get for COc1ccccc1NC(=S)N/N=C1\C(=O)Nc2ccccc21 ?
Output: label 0

Input: What do you get for CNC(=O)CCCN(C)C(=O)CCCCC(=O)N(C)C ?
Output: label 0

Input: What do you get for CS(=O)(=O)NNS(=O)(=O)c1ccc(Br)cc1 ?
Output: label 0

Input: What do you get for O=C1/C(=C/c2cccc(Br)c2)Cc2ccccc21 ?
Output: label 0

Input: What do you get for CCOC(=O)/C=C(/C(=O)OCC)n1ccc(=O)n(Cc2cnnn2COCCOC(C)=O)c1=O ?
Output: label 0

Input: What do you get for Cc1c(C(=O)CC(=O)C(=O)Nc2cccc(C(F)(F)F)c2)[n+]([O-])c2ccccc2[n+]1[O-] ?
Output: label 0

Input: What do you get for CCCCCCCCCCCc1nnc(N)o1 ?
Output: label 0

Input: What do you get for CC(C)(C)NNC(=O)/C(=C/c1ccc(Oc2ccc(Cl)c(Cl)c2)cc1)NC(=O)c1ccccc1 ?
Output: label 0

Input: What do you get for O=[N+]([O-])c1cc([As](Br)c2ccc(O)c([N+](=O)[O-])c2)ccc1O ?
Output: label 0

Input: What do you get for CCn1c(=O)nc2n(-c3ccc(SC)cc3)c3ccccc3nc-2c1=O ?
Output: label 0

Input: What do you get for O=C1CCCCCCCCCCC(=O)N2CCOCCOCCN1Cc1cccc(n1)C2 ?
Output: label 0

Input: What do you get for O=C1c2cccc3cc([N+](=O)[O-])cc(c23)C(=O)N1CCCN1CCN(CCCNc2ccc3ncn4c5ccccc5c(=O)c2c34)CC1 ?
Output: label 1

Input: What do you get for CC(=O)OCC1OC(n2c(-c3ccc(C)cc3)cc(-c3ccccc3)c(C#N)c2=O)C(OC(C)=O)C(OC(C)=O)C1OC(C)=O (configuration not stated) ?
Output: label 0

Input: What do you get for CCSCCC(N)C(=O)O (configuration not stated) ?
Output: label 0

###

I'd be grateful if you could share measured GI50 for these entries.
test system: MDA-MB-231; experiment: NCI tumour cell line growth inhibition, 48 h
Where a name gives a salt, the structure may show the parent alone. Active and inactive are the calls of the source. No stated cut-off is given here; in the data, active = GI50 up to about 1.1 µM and inactive = higher.

Input: Return GI50 measured with MDA-MB-231 given this molecule: CCCCNC(=O)c1cc2c(cc1Cl)Sc1nccn1S2(=O)=O
Output: > 100 µM (inactive)

Input: What do you get for Cc1onc(-c2c(F)cccc2Cl)c1C(=O)N[C@@H]1C(=O)N2[C@@H]1SC(C)(C)[C@@H]2C(=O)O ?
Output: > 100 µM (inactive)

Input: What do you get for CCOC(=O)N1CCC2(CC1)C[C@@](C(C)=O)(c1ccccc1)C(C)O2 (stereo partly drawn) ?
Output: > 100 µM (inactive)

Input: What do you get for Oc1ccc(C(O)C2CCCCN2)cc1O (stereo not drawn) [RIMITEROL HYDROBROMIDE] ?
Output: > 100 µM (inactive)

Input: What do you get for NC(=O)Nc1n[nH]c(-c2ccccc2)n1 ?
Output: > 100 µM (inactive)

Input: What do you get for Cc1nc2ccc(S(=O)(=O)O)cc2c(=O)n1-c1ccc(C(=O)NN2C(=O)C(Cl)C2c2ccccc2O)cc1 (stereo not drawn) ?
Output: > 100 µM (inactive)

Input: What do you get for O=c1c(Sc2c(SCSc3cnc4ccccc4c3Sc3c[nH]c4ccccc4c3=O)cnc3ccccc23)c[nH]c2ccccc12 ?
Output: 34.9 µM (inactive)

Input: What do you get for CCCCCCCCCCCCCCCCCCNc1nc(=O)n(C2CC(O)C(COP(=O)(O)OCC(COP(=O)(O)OC3C(CO)OC(n4ccc(N)nc4=O)C3O)OCCCCCCCCCCCCCCCCCC)O2)cc1F (stereo not drawn) ?
Output: > 100 µM (inactive)
